# test.target: HCV NS3 protease domain (Hepatitis C virus genotype 1b)
# Construct: The first 181 amino acids of NS3 (residues 1027-1207 of the viral polyprotein); hexa-histidine (C); made in house; host or cells: E. coli BL21/DE3 pLysS
# Sequence (Q9WMX2 1027-1207, other chains not shown): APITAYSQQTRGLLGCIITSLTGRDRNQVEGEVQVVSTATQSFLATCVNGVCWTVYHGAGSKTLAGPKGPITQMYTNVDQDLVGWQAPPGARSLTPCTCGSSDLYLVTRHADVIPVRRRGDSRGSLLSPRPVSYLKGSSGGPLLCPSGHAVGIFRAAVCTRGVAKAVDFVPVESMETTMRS
# assay.comment: biochemical
# particulars: Enzyme Assay 1 (HCV NS3 Protease Domain Peptide Cleavage Assay) activity, apparent Ki class
Provide the recorded Ki for the entries that follow.

(Q) API: value(readout=Ki, system=HCV NS3 protease domain (Hepatitis C virus genotype 1b)) for record CCC[C@H](NC(=O)[C@@H]1C[C@]2(CC(c3ccc(Cl)c(Cl)c3)=NO2)CN1C(=O)[C@@H](NC(=O)O[C@H]1CCOC1)C(C)(C)C)C(=O)C(=O)NC1CC1 [Compound 32]
(A) 100 to 500 nM

(Q) Identify the measured Ki of CCC[C@H](NC(=O)[C@@H]1C[C@]2(CC(c3cccc(Cl)c3)=NO2)CN1C(=O)[C@@H](NC(=O)CC1CCCCC1)C(C)(C)C)C(=O)C(=O)NCCOc1ccccc1OC [Compound 488] for HCV NS3 protease domain (Hepatitis C virus genotype 1b).
(A) > 500 nM

(Q) Enter reported Ki observed with HCV NS3 protease domain (Hepatitis C virus genotype 1b) for CCC[C@H](NC(=O)[C@@H]1C[C@]2(CC(c3cccc(Cl)c3)=NO2)CN1C(=O)[C@@H](NC(=O)CC1CCCCC1)C(C)(C)C)C(=O)C(=O)NCc1cc(-c2ccc(Cl)cc2)no1 [Compound 433]
(A) > 500 nM

(Q) Hi! What's the reported Ki for CCC[C@H](NC(=O)[C@@H]1C[C@]2(CC(c3cc(C)c(OC)c(C)c3)=NO2)CN1C(=O)[C@@H](NC(=O)CC1CCOCC1)C(C)(C)C)C(=O)C(=O)NC1CC1 [Compound 572] on HCV NS3 protease domain (Hepatitis C virus genotype 1b)?
(A) 100 to 500 nM

(Q) // fetch HCV NS3 protease domain (Hepatitis C virus genotype 1b) Ki for CCC[C@H](NC(=O)[C@@H]1C[C@]2(CC(c3cccc(Cl)c3)=NO2)CN1C(=O)[C@@H](NC(=O)CC1CCCCC1)C(C)(C)C)C(=O)C(=O)N[C@H](C)c1ccccc1 [Compound 296]
(A) > 500 nM

(Q) Give the reported Ki for C=CCOC(=O)N[C@H](C(=O)N1C[C@@]2(CC(c3cccc(Cl)c3)=NO2)C[C@H]1C(=O)N[C@]1(C(=O)NS(=O)(=O)C2CC2)C[C@H]1C=C)C(C)(C)C [Compound 130] (system: HCV NS3 protease domain (Hepatitis C virus genotype 1b)).
(A) 100 to 500 nM

(Q) What Ki appears in the records for this compound with HCV NS3 protease domain (Hepatitis C virus genotype 1b)? CCC[C@H](NC(=O)[C@@H]1C[C@]2(CC(c3ccc(OC)cc3OC)=NO2)CN1C(=O)[C@@H](NC(=O)OCc1ccccc1)C(C)(C)C)C(=O)C(=O)NC1CC1 [Compound 335]
(A) > 500 nM

(Q) Entry CCC[C@H](NC(=O)[C@@H]1C[C@]2(CC(c3cccc(Cl)c3)=NO2)CN1C(=O)[C@@H](NS(=O)(=O)c1ccc(Cl)cc1)C(C)CC)C(=O)C(=O)NC1CC1 (stereo partly drawn) [Compound 416] , system HCV NS3 protease domain (Hepatitis C virus genotype 1b): what Ki was measured?
(A) > 500 nM

(Q) Field: Ki (HCV NS3 protease domain (Hepatitis C virus genotype 1b)). Entry: CCC[C@H](NC(=O)[C@@H]1C[C@]2(CC(c3cccc(Cl)c3)=NO2)CN1C(=O)[C@@H](NC(=O)CC1CCCCC1)C(C)(C)C)C(=O)C(=O)Nc1cccc(C#N)c1 [Compound 588]
(A) > 500 nM

(Q) Hello, I am looking for reported Ki with HCV NS3 protease domain (Hepatitis C virus genotype 1b) for CCC[C@H](NC(=O)[C@@H]1C[C@]2(CC(c3cccc(Cl)c3)=NO2)CN1C(=O)[C@@H](NC(=O)CC1CCCCC1)[C@@H](C)c1ccccc1)C(=O)C(=O)NC1CC1 [Compound 125] . Could you help?
(A) 100 to 500 nM

(Q) Query Ki on HCV NS3 protease domain (Hepatitis C virus genotype 1b) for CCC[C@H](NC(=O)[C@@H]1C[C@]2(CC(CCC(=O)OC)=NO2)CN1C(=O)[C@@H](NC(=O)O[C@H]1CCOC1)C(C)(C)C)C(=O)C(=O)NC1CC1 [Compound 229]
(A) > 500 nM

(Q) Item: C=C[C@@H]1C[C@]1(NC(=O)[C@@H]1C[C@]2(CC(c3cccc(Cl)c3)=NO2)CN1C(=O)[C@@H](NC(=O)CC1CCCCC1)C(C)(C)C)C(=O)NS(=O)(=O)C1CC1 [Compound 162] Test system: HCV NS3 protease domain (Hepatitis C virus genotype 1b) Read-out: Ki Value: ?
(A) 100 to 500 nM
